Where do the numbers come from? From patent US20240181073A1.

Target: T1, Human BCMA (B Cell Maturation Antigen) (human, UniProt Q02223 1-184)
T1 sequence: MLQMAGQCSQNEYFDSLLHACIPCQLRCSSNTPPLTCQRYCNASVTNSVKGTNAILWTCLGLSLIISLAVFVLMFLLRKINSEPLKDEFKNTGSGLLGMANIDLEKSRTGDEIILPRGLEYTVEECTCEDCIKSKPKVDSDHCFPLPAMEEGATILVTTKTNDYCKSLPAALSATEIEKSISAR
Assay: cell-based or functional assay
Provide the recorded EC50 of cell viability (Cell Titer-Glo), NCI-H929 (BCMA+) cells, 4-day assay for the entries that follow.
One number for each entry, in nM.

Guide cases for EC50 of cell viability (Cell Titer-Glo), NCI-H929 (BCMA+) cells, 4-day assay, answers given:
anti-BCMA-AB1-Compound 7 (antibody, human IgG1, V domains shown, drug-linker Compound 7 on antibody cysteine thiols (maleimide conjugation; positions not stated)) VH: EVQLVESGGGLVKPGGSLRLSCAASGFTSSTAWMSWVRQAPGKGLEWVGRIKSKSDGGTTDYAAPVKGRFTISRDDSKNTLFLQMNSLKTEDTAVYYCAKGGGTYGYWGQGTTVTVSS VL: QSVLTQPASVSGSPGQSVTISCTGTSSAHGGHYYVSWYQQHPGKAPKLMIYDVSNRPSGVSNRFSGSKSGNTASLTISGLQAEDEADYYCGSYTSSGSYVFGTGTKLTVL	2.64
anti-BCMA-AB1-Compound 4 (antibody, human IgG1, V domains shown, drug-linker Compound 4 on antibody cysteine thiols (C-lock conjugation; positions not stated)) VH: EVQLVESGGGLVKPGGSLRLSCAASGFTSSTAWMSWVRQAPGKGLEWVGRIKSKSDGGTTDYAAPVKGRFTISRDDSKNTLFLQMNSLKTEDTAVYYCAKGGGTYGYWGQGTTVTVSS VL: QSVLTQPASVSGSPGQSVTISCTGTSSAHGGHYYVSWYQQHPGKAPKLMIYDVSNRPSGVSNRFSGSKSGNTASLTISGLQAEDEADYYCGSYTSSGSYVFGTGTKLTVL	13.1

Continue with the next binder.
Report EC50 of cell viability (Cell Titer-Glo), NCI-H929 (BCMA+) cells, 4-day assay, nothing else, for this binder: anti-BCMA-AB1-Compound 5 (antibody, human IgG1, V domains shown, drug-linker Compound 5 on antibody cysteine thiols (C-lock conjugation; positions not stated)) VH: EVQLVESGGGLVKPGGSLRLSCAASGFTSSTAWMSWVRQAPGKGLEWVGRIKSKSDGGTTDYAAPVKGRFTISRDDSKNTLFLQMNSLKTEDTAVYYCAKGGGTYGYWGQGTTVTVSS VL: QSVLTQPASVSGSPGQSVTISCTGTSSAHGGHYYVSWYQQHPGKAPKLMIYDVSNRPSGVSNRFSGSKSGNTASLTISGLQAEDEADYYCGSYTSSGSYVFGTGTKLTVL
3.04
